Here, each record is paired with measured self-cleavage data.
B1: HDV Ribozyme (parent)
chain: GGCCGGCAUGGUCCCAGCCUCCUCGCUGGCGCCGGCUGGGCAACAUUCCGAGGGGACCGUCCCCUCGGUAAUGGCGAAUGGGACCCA

# Variants of: B1
# PROTOCOL_DESCRIPTION: self-cleavage, relative activity (ratio to wild type); higher = more cleavage; co-transcriptional

>  <SEQUENCE_CODE>
GGCCGGCAUCGUCUCAGCCUCCUCGCUGGCGCCGGCUGGGCAACAUUCCGAGGGGACCGUCCCCUCGGUAAUGGCGAAUGGGACCCA

>  <self-cleavage>
1.11

$$$$
>  <SEQUENCE_CODE>
GGCCGGCAUGGUCCCAACCUCCUCGCUGGCGCCGGCUGGGCAACAUUCCGAGGGGACCGUCCCCUCGGUAAUGGCGAAUCGGACCCA

>  <self-cleavage>
0.345

$$$$
>  <SEQUENCE_CODE>
GGCCGGCAUGGUCCCAGCCUCCUGGCUGGCGCCGGCUGGGCAACAUUCCGAGGGGAGCGUCCCCUCGGUAAUGGCGAAUGGGACCCA

>  <self-cleavage>
0.192

$$$$
>  <SEQUENCE_CODE>
GGCCGGCAUGGUCCCAGCCUCCUCGCUGGCGCCGGCUCGGUAACAUUCCGAGGGGACCGUCCCCUCGGUAAUGGCGAAUGGGACCCA

>  <self-cleavage>
1.08

$$$$
>  <SEQUENCE_CODE>
GGCCGGCAUGGUCCCUGCCCCCUCGCUGGCGCCGGCUGGGCAACAUUCCGAGGGGACCGUCCCCUCGGUAAUGGCGAAUGGGACCCA

>  <self-cleavage>
0.277

$$$$
>  <SEQUENCE_CODE>
GGCCGGCAUGGUCCCAGCCUCCUCGCUGGCGCAGUCUGGGCAACAUUCCGAGGGGACCGUCCCCUCGGUAAUGGCGAAUGGGACCCA

>  <self-cleavage>
0.137

$$$$
>  <SEQUENCE_CODE>
GGCCGGCAUGGUCCCAGCCUCCUCGCUGGCGCCGGCUGGGCAACAUUCCGAGGGGACCGUCCCCUCGGUAAUGUCGAAUGGGACUCA

>  <self-cleavage>
0.614

$$$$
>  <SEQUENCE_CODE>
GGCCGGCAUGGUCCCAGCCUCCUCGCUGGCGCCGGCUGGACGACAUUCCGAGGGGACCGUCCCCUCGGUAAUGGCGAAUGGGACCCA

>  <self-cleavage>
0.475

$$$$
>  <SEQUENCE_CODE>
GGCCGGCAUGGUCCCAGCCUCCUCGCUGGCGCCGGCUGGGCAACAUUCCGAGGGGACCGUCCCCUCGGUCAUGGAGAAUGGGACCCA

>  <self-cleavage>
0.123

$$$$
>  <SEQUENCE_CODE>
GGCCGACAUGGUCCCAGCCUCCUCGCUGGCGCCGGCUGGGCAACAUUCCGAGGGGACCGUCCCCUCGGUAAUGGCGAAUGGGGCCCA

>  <self-cleavage>
0.302

$$$$
>  <SEQUENCE_CODE>
GGCCGGCAUGGUCCCAGCCUCCUCGCUGGCGCCGGCUGGGCAACCUUCCGAGGGGACCGUCGCCUCGGUAAUGGCGAAUGGGACCCA

>  <self-cleavage>
0.391

$$$$
